Target: HSPDE4A4-EGFP (Homo sapiens, UniProt P27815)
Construct: expressed in transfected cells
Sequence (P27815 whole entry): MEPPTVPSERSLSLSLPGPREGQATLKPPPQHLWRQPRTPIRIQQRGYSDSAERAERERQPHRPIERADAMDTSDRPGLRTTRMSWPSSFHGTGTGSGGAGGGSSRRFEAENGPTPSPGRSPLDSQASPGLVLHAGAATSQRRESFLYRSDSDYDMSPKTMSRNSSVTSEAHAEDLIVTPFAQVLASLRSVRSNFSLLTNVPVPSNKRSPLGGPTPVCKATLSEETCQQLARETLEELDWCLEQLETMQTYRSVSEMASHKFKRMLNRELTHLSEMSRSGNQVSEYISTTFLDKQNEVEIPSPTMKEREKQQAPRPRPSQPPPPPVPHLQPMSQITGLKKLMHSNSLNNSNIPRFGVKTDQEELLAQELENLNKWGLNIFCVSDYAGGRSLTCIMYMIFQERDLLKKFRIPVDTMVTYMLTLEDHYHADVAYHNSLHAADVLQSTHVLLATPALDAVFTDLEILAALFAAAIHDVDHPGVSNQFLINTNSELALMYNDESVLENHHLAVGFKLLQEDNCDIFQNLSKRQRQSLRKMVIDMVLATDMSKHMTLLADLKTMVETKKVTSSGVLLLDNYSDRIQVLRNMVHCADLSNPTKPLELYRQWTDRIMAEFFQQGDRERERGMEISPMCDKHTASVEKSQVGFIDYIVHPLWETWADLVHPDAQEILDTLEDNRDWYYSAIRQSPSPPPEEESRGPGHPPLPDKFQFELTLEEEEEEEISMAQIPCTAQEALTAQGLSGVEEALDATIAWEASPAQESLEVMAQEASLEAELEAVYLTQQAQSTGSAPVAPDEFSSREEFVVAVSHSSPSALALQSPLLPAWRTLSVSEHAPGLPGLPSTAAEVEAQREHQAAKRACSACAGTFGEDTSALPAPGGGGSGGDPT
Assay: Dispersal of preformed Rolipram-induced spots, HSPDE4A4-EGFP CHO cells
Type: cell-based
Conditions: yes/no
Property measured: Removal of Rolipram-induced PDE4A4-spots

O=c1c2cccnc2n(-c2cccc([N+](=O)[O-])c2)c(=O)n1Cc1ccncc1; no
COc1ccc(C(=O)Nc2c(Cl)cncc2Cl)cc1OC1CCCC1; yes
COc1ccc([C@]2(C#N)CC[C@@H](C(=O)O)CC2)cc1OC1CCCC1; yes
CCCCn1c(=O)c2c(ncn2CC(C)=O)n(CCCC)c1=O; no

----------
Target: HSPDE4A4-EGFP (Homo sapiens, UniProt P27815)
Construct: expressed in transfected cells
Test: Spot formation in CHO cells transfected with HSPDE4A4-EGFP
Assay type: cell-based
Settings: yes/no
Property measured: Formation of PDE4A4 spots

COc1ccc(C(=O)Nc2c(Cl)cncc2Cl)cc1OC1CCCC1; no
O=c1c2cccnc2n(-c2cccc([N+](=O)[O-])c2)c(=O)n1Cc1ccncc1; yes
CCCCn1c(=O)c2c(ncn2CC(C)=O)n(CCCC)c1=O; yes
COc1ccc([C@]2(C#N)CC[C@@H](C(=O)O)CC2)cc1OC1CCCC1; no

These data points were gathered from patent US20030187056A1.
